Here, each record is paired with measured pIC50 data.
# target_under_test: Amine oxidase [flavin-containing] B (Rattus norvegicus, UniProt P19643)
# Sequence (P19643 whole entry): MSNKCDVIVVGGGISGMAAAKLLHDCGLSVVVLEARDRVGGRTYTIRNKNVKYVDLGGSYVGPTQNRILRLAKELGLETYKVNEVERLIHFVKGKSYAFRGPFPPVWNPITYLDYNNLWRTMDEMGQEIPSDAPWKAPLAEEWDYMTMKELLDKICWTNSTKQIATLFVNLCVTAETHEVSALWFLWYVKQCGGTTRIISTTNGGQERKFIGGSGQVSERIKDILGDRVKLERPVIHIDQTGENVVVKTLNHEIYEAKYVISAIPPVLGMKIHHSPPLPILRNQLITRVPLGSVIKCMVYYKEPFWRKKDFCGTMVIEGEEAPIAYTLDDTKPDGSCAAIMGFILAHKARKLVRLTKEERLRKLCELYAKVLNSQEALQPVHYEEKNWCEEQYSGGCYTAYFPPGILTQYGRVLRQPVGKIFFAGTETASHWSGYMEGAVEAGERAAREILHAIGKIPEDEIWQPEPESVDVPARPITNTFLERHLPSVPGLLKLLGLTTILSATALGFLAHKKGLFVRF
Remember, pIC50 is on a log scale: it is -log10 of the molar concentration.

Consider the reported pIC50 for these compounds:
[
  {
    "compound": "C#CCN(C)C1CCc2ccccc2C1 (single isomer, unassigned; (+))",
    "target_under_test": "Amine oxidase [flavin-containing] B (Rattus norvegicus, UniProt P19643)",
    "pIC50": 7.80
  },
  {
    "compound": "C#CCN(C)C1CCc2ccccc2C1 (racemic)",
    "target_under_test": "Amine oxidase [flavin-containing] B (Rattus norvegicus, UniProt P19643)",
    "pIC50": 7.39
  }
]

Req: I'd like to know its pIC50. The compound in question is C#CCN(C)C1CCc2ccccc2C1 (single isomer, unassigned; (-))
Resp: 7.06

###

# target_under_test: Amine oxidase [flavin-containing] B (Homo sapiens, UniProt P27338)
# Sequence (P27338 whole entry): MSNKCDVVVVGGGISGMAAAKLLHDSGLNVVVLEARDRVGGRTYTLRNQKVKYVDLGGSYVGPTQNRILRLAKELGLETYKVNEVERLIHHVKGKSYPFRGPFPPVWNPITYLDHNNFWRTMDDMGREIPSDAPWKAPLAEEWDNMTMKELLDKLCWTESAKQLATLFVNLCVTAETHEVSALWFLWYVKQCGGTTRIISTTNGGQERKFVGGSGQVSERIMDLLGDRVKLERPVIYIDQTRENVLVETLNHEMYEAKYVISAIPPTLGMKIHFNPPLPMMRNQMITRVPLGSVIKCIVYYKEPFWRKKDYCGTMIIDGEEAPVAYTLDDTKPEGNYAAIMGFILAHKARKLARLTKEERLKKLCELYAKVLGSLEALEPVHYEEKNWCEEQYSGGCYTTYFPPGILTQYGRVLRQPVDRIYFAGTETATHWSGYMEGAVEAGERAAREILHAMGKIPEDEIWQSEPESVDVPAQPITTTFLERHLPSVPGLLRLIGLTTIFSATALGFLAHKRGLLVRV
# assay_explanation: Inhibition of human recombinant MAOB using kynuramine substrate incubated for 20 mins by fluorescence spectrophotometry
outcome_measure: pIC50
Schema: pIC50 number; meaning minus log10 of the concentration expressed in molar units.

Req: pIC50 of C#CCNC1CCc2ccccc2C1 (racemic) on Amine oxidase [flavin-containing] B (Homo sapiens, UniProt P27338)?
Resp: 4.84
